# system: Gonadotropin-releasing hormone receptor (Homo sapiens, UniProt P30968)
# Sequence (P30968 whole entry): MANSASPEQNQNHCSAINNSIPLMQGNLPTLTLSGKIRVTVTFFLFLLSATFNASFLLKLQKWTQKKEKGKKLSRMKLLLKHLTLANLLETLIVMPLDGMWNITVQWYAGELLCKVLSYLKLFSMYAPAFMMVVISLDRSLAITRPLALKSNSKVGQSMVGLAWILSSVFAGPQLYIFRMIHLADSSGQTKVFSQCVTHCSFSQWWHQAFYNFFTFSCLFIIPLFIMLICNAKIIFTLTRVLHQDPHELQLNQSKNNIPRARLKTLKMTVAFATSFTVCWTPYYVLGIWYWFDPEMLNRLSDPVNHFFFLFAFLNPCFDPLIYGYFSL
Classify: MET when Ki is strictly less than 30 nM; NOT MET when Ki is not.

**Q:** Please check: Ki for CCOC(=O)c1cn(Cc2ccccc2F)c2cc(-c3ccc(NC(C)=O)cc3)c(CN(C)Cc3ccccc3)n2c1=O , strictly under 30 nM or not?
**A:** NOT MET

**Q:** Check if Ki falls below 30 nM for CCOC(=O)c1cn(Cc2ccccc2F)c2cc(-c3ccc(OC)cc3)c(CN(C)Cc3ccccc3)n2c1=O .
**A:** NOT MET

**Q:** Given CCOC(=O)c1cn(Cc2ccccc2F)c2cc(-c3ccc(NC(=O)C(C)C)cc3)c(CN(C)Cc3ccccc3)n2c1=O , is recorded Ki strictly lower than 30 nM?
**A:** NOT MET

**Q:** Please indicate whether the reported Ki of CCCC(=O)Nc1ccc(-c2cc3n(Cc4ccccc4F)cc(C(=O)NCCCc4ccccc4)c(=O)n3c2CN(C)CCc2ccccn2)cc1 is strictly below 30 nM.
**A:** MET

**Q:** I'd appreciate it if you could check whether CCCCNC(=O)c1cn(Cc2ccccc2F)c2cc(-c3ccc(NC(=O)CCC)cc3)c(CN(C)CCc3ccccn3)n2c1=O has Ki smaller than 30 nM.
**A:** MET

**Q:** Decide: Ki of CCCC(=O)Nc1ccc(-c2cc3n(Cc4ccccc4F)cc(C(=O)OC(CC)CC)c(=O)n3c2CN(C)C)cc1 strictly below 30 nM?
**A:** NOT MET

**Q:** For CCCC(=O)Nc1ccc(-c2cc3n(Cc4ccccc4F)cc(C(=O)NC4CCCC4)c(=O)n3c2CN(C)CCc2ccccn2)cc1 , is the recorded Ki below the cut-off of 30 nM?
**A:** MET

**Q:** Strictly below 30 nM in Ki? CCOC(=O)c1cn(Cc2ccccc2F)c2cc(-c3ccc([N+](=O)[O-])cc3)c(CN(C)Cc3ccccc3)n2c1=O
**A:** NOT MET

**Q:** Is the reported Ki for CCOC(=O)c1cn(Cc2ccccc2F)c2cc(-c3ccc(NC(=O)C(C)C)cc3)c(CN(C)CCc3ccccn3)n2c1=O strictly below 30 nM?
**A:** MET

**Q:** Answer whether the compound CCC(CC)OC(=O)c1cn(Cc2ccccc2F)c2cc(-c3ccc(N)cc3)c(CN(C)Cc3ccccc3)n2c1=O has Ki strictly less than 30 nM
**A:** NOT MET

**Q:** Hi there! Is Ki for CCOC(=O)c1cn(Cc2ccccc2F)c2cc(-c3ccc(OC)cc3)c(CN(C)CCc3ccccn3)n2c1=O below 30 nM, do you know?
**A:** NOT MET

**Q:** Is it true that Ki reported for CCC(CC)OC(=O)c1cn(Cc2ccccc2F)c2cc(-c3ccc(OC)cc3)c(CN(C)Cc3ccccc3)n2c1=O is less than 30 nM?
**A:** NOT MET

**Q:** # check: Ki < 30 nM for CCCC(=O)Nc1ccc(-c2cc3n(Cc4ccccc4F)cc(C(=O)NC(CC)CC)c(=O)n3c2CN(C)CCc2ccccn2)cc1
**A:** MET

**Q:** Determine whether this compound shows Ki lower than 30 nM (ties excluded): CCCC(=O)Nc1ccc(-c2cc3n(Cc4ccccc4F)cc(C(=O)NC4CCCCC4)c(=O)n3c2CN(C)CCc2ccccn2)cc1
**A:** NOT MET

**Q:** Bench note: check whether CCCC(=O)Nc1ccc(-c2cc3n(Cc4ccccc4F)cc(C(=O)OC(CC)CC)c(=O)n3c2CN(C)CCc2ccccc2)cc1 shows Ki below 30 nM
**A:** MET

**Q:** Field: below-cutoff. Rule: recorded Ki strictly less than 30 nM. Subject: CCOC(=O)c1cn(Cc2ccccc2F)c2cc(-c3ccc(N)cc3)c(CN(C)Cc3ccccc3)n2c1=O
**A:** NOT MET

**Q:** Does CCCC(=O)Nc1ccc(-c2cc3n(Cc4ccccc4F)cc(C(=O)OC(CC)CC)c(=O)n3c2CN(C)Cc2ccccc2)cc1 have Ki strictly under 30 nM?
**A:** MET

**Q:** Confirm or reject: Ki of CCC(CC)OC(=O)c1cn(Cc2ccccc2F)c2cc(-c3ccc(OC)cc3)c(CN(C)CCc3ccccn3)n2c1=O lies strictly below 30 nM
**A:** MET
